Protocol notes: Caco-2 monolayer drug transport (in vitro BBB model)
Assay type: in vitro ADME
Test context: human, read-out: BA/AB permeability ratio
Counter-ions that a name gives are not always drawn.

Molecule: CC(=O)N(O)CCCCCNC(=O)CCC(=O)N(O)CCCCCNC(=O)CCC(=O)N(O)CCCCCN [DFO, Deferoxamine mesylate]
efflux ratio at 2 h: 2.13

----------
Protocol notes: Caco-2 monolayer drug transport (in vitro BBB model)
Type: in vitro ADME
Test context: human, apical-to-basolateral, 10^–4 M, 2 h, 37 °C
Where a name gives a salt, the structure may show the parent alone.

Compound: CC(=O)N(O)CCCCCNC(=O)CCC(=O)N(O)CCCCCNC(=O)CCC(=O)N(O)CCCCCN [DFO, Deferoxamine mesylate]
Papp A→B at 2 h: 76.1 ×10⁻⁶ cm/s

----------
Protocol notes: Cell viability assay SH-SY5Y (MTT)
Assay type: cell-based
Test context: human, SH-SY5Y cells
Where a name gives a salt, the structure may show the parent alone.

Compound: CC(=O)N(O)CCCCCNC(=O)CCC(=O)N(O)CCCCCNC(=O)CCC(=O)N(O)CCCCCN [DFO, Deferoxamine mesylate]
viability at 24 h, 100 µM: ~100%

----------
Protocol notes: Caco-2 monolayer drug transport (in vitro BBB model)
Type: in vitro ADME
Test context: human, basolateral-to-apical, 10^–4 M, 2 h, 37 °C
Where a name gives a salt, the structure may show the parent alone.
Readout name: Papp B→A at 2 h (×10⁻⁶ cm/s)

Compound: CC(=O)N(O)CCCCCNC(=O)CCC(=O)N(O)CCCCCNC(=O)CCC(=O)N(O)CCCCCN [DFO, Deferoxamine mesylate]
Value units: ×10⁻⁶ cm/s
Test result: 162

Where do these numbers come from? They come from paper PMC12754760.
